Biological target: T1, MBP-RAMP1 ECD-(GS)5-CLR ECD-H6 fusion protein (human, UniProt O60894 24-111; Q16602 29-144)
T1 construct: range 24-111;range 29-144; Tethered ECD fusion made in E. coli; used in the FP assay at 15 nM; also called MBP-hRAMP1.24-111-(Gly-Ser)5-hCLR.29-144-H6
T1 sequence (O60894 other isoform, or with tags, fused parts or gaps limits assumed, form in doubt): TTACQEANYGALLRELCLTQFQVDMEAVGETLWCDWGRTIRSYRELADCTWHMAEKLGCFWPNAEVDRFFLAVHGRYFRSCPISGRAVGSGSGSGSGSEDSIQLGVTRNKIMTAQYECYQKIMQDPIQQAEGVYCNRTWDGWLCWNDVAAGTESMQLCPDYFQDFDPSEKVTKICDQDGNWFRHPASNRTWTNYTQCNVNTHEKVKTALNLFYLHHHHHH
Assay: AlphaLISA competition: displaces Biotin-CGRP probe (50 nM) from the RAMP1-CLR ECD fusion protein (5 nM)
pIC50: −log10 of the molar value. Where no end group is shown, it is not given here.
Below: a set of entries, each annotated with reported pIC50.

BINDER	pIC50
DKDNVAPRWKISPWGY-NH2 (also called S45W/Q50W double mutant) [AM(37-52)NH2 [S45W, Q50W]]	7.77
DKDNVAPRSKISPWGY-NH2 [AM(37-52)NH2 [Q50W]]	6.40
